- target entity: SARS-CoV-2 spike (S) protein (SARS-CoV-2), P0DTC2
- stated conditions: remark: other sources report otherwise
Give measured koff for each item. Keep answers brief.
Numbers only, in s⁻¹.

Previously resolved entries follow.
binder: antibody 279 (antibody, V domains shown) VH: EVQLLESGGGLVQPGGSLRLSCAASGFTFSSYAMSWVRQAPGKGLEWVSTISGSGGNTYYADSVKGRFTISRDNSKNTLYLQMNSLRAEDTAVYYCAKDLFQGLYYGSGEFDYWGQGTLVTVSS VL: QSALTQPASVSGSPGQSITISCTGTSSDVGAYNYVSWYQQHPGKAPKLMIYGVSNRPSGVSNRFSGSKSGNTASLTISGLQAEDEADYYCSSYTSSSTRVFGTGTKVTVL
koff (s⁻¹): 0.00195
//
binder: antibody 383 (antibody, V domains shown) VH: EVQLVESGGGLVQPGGSLRLSCAASGFTFSSYDMHWVRQATGKGLEWVSTIGTAGDTYYPGSVKGRFTISRENAKNSLYLQMNSLRAGDTAVYYCARVAYSSSFVYWYFDLWGRGTLVTVSS VL: DIQMTQSPSSLSASIGDRVTITCRASQSISSYLNWYQQKPGKAPNLLIYAASSLQSGVPSRFSGSGSGTDFTLTISSLQPEDFATYYCQQSYTTPLYTFGQGTKLEIK
koff (s⁻¹): 7.09e-05

Okay, now this binder:
response.value for antibody 322 (antibody, V domains shown) VH: EVQLVESGGGLVQPGGSLRLSCAASGFTFSSYWMSWVRQAPGKGLEWVANIKQDGSEKYYVDSVKGRFTISRDNAKNSLYLQMNSLRAEDTAVYYCARDEDVAAALDYWGQGTLVTVSS VL: SYVLTQPPSVSVAPGKTARITCGGNNIGSKSVHWYQQKPGQAPVLVIYYDSDRPSGIPERFSGSNSGNTATLTISRVEAGDEADYYCQVWDSSSDHPERVFGGGTKLTVL (field: koff) = 0.000401

Value source: patent US20210292393A1
